tested on: MDA-N; assay: NCI tumour cell line growth inhibition, 48 h
Activity calls are given as the source filed them. Cut-off read from the data, not from the text of the source: active = GI50 up to about 1.1 µM and inactive = higher.
Catalogue of molecules with associated GI50

{"columns": ["MOLECULE", "GI50"],
 "data": [
  ["Clc1ccc(Cc2nc3ccccc3o2)cc1", "> 100 µM (inactive)"],
  ["O=C(NCCCl)Nc1ccccc1", "> 100 µM (inactive)"],
  ["CC(C)(CC(=O)Nc1ccccc1)C(=O)O", "> 100 µM (inactive)"],
  ["CC(=O)Nc1ccc2c3c(cc(O)c2c1)N(C(=O)CCCCC(=O)Nc1ccc2c4c(cc(O)c2c1)N(C(=O)OC(C)(C)C)CC4CCl)CC3CCl (stereo not drawn)", "1.77 µM (inactive)"],
  ["O=C1c2ccccc2-c2c1c1ccccc1c(=O)n2-c1cccnc1", "> 100 µM (inactive)"],
  ["O=c1[nH]nc(-c2ccccc2)n1/N=C/c1ccncc1", "> 100 µM (inactive)"],
  ["CCOC(=O)Nc1cc2ccccc2c(/N=N/c2ccccc2)c1O", "> 100 µM (inactive)"]
]}

Okay, now this molecule:
GI50 for "O=C1Cc2cn[nH]c2-c2ccccc2N1" is 35.2 µM (inactive)

====

tested on: HCC 2998; assay: NCI tumour cell line growth inhibition, 48 h
Activity calls are given as the source filed them. Rule as the data show it: active = GI50 up to about 1.1 µM and inactive = higher.
RECORDED METRIC: GI50

Below are worked cases with known answers.
{"columns": ["COMPOUND", "GI50"],
 "data": [
  ["CNC(=O)OCC1=C(COC(=O)NC)CN(c2ccccc2)C1", "> 100 µM (inactive)"],
  ["Cc1ccccc1N(CCC#N)C1=NN(C(=O)CC(=O)Nc2ccccc2)C(c2ccccc2)C1 (stereo not given)", "> 100 µM (inactive)"],
  ["NCC(NC(=O)OCc1ccccc1)C(=O)O (stereo not given)", "> 50 µM (inactive)"],
  ["Nc1ncnc2c1ncn2[C@H]1CC[C@@H](NO)C1", "> 100 µM (inactive)"],
  ["Cc1cc(Cl)ccc1NC(=O)C1C(=O)N(c2ccc(Cl)cc2C)C(=O)/C1=N\\NC(N)=S (stereo not given)", "20.8 µM (inactive)"],
  ["COc1ccc(C2SC(=N)Nc3c2c(C)nn3C(=O)Cc2ccccc2)cc1 (stereo not given)", "> 100 µM (inactive)"]
]}

Test item "CCc1ccc(Nc2ccc([N+](=O)[O-])cc2[N+](=O)[O-])cc1" ; HCC 2998; reported GI50 was > 100 µM (inactive)

Test item CC1CCc2sc3nc(S)n(C)c(=O)c3c2C1 (stereo not given) ; HCC 2998; reported GI50 was 22.2 µM (inactive)

Test item COc1ccc(COCC[C@H](C)OC2OC(CO[Si](C)(C)C(C)(C)C)C(OC(=O)CCCN=[N+]=[N-])C(OC(=O)CCCN=[N+]=[N-])C2OC(=O)CCCN=[N+]=[N-])cc1 (stereo not given in full) ; HCC 2998; reported GI50 was 34.4 µM (inactive)

Test item "O=C1c2ccccc2-n2c1nc1ccccc1c2=O" ; HCC 2998; reported GI50 was 29.4 µM (inactive)

====

tested on: HOP-62; assay: NCI tumour cell line growth inhibition, 48 h
Active and inactive are the calls of the source. Cut-off read from the data, not from the text of the source: active = GI50 up to about 1.1 µM and inactive = higher. Peptide text beside a SMILES is read from it. * marks the point of attachment. Boc = CC(C)(C)OC(=O)*
The categories you may choose from are label 1 for active, label 0 for inactive

Example entries and their recorded answers appear below.
{"columns": ["MOLECULE", "ASSIGNED CATEGORY"],
 "data": [
  ["O=C1c2ccccc2-n2c1nc1ccccc1c2=O", "label 0"],
  ["CC(NC(=O)OC(C)(C)C)C(=O)NC(Cc1ccccc1)C(=O)NCC(=O)O (stereo not drawn) (Boc-Ala-Phe-Gly-OH; configuration not given here)", "label 0"],
  ["CN(C)P(=O)(/C(N)=N/Nc1ccc([N+](=O)[O-])cc1)N(C)C", "label 0"],
  ["O=c1c2nc[nH]c2n(-c2ccccc2)c(=S)n1-c1ccccc1", "label 0"]
]}

[in] Status in this test for "CCCCCCCSc1nc2c(C(=O)OCC)ncn2c2ccccc12" ?
[out] label 0

[in] Status in this test for "O=C1c2ccccc2C(=O)N1n1c(Cc2ccc(Cl)cc2)n[nH]c1=O" ?
[out] label 0

[in] Status in this test for O=C(CC(NC(=O)OCc1ccccc1)C(=O)NC1Cc2ccccc2C1=O)OCc1ccccc1 (stereo not given) ?
[out] label 0

[in] Status in this test for "O=C(O)C1=Cc2cccc3cccc(c23)C1=O" ?
[out] label 0

[in] Status in this test for c1cncc(C2c3[nH]c4ccccc4c3CCN2CCN2CCCCC2)c1 (stereo not given) ?
[out] label 0

[in] Status in this test for "COC(=O)C1=C(\c2ccccc2)c2ccccc2C(=O)N(C2CCCCC2)/C=C\1" ?
[out] label 0

[in] Status in this test for "COC(=O)C(Cl)=C1CC1" ?
[out] label 0

[in] Status in this test for "Cc1ccc(-c2cc(=O)c3cc(C)c(C)c(C(=O)O)c3o2)cc1" ?
[out] label 0

[in] Status in this test for "c1ccc(C2=NCCc3cc4c(cc32)OCO4)cc1" ?
[out] label 0

[in] Status in this test for "Cc1cc2c(C)nn(Cc3ccccc3Cl)c2c(C#N)c1C" ?
[out] label 0

[in] Status in this test for CC1CC/C(=C\c2ccc(Cl)cc2)C(=O)/C1=C\c1ccc(Cl)cc1 (stereo not given) ?
[out] label 0

[in] Status in this test for CCCCCOP(=O)(OCCCCC)C(NC(C)=O)(C(=O)OCC)C(F)(F)F (stereo not given) ?
[out] label 0

[in] Status in this test for CN1CC2=C(OC(N)=C(C#N)C2c2cccs2)/C(=C/c2cccs2)C1 (stereo not given) ?
[out] label 0

[in] Status in this test for "Cc1nc2[nH]ccn2c(=O)c1CCCl" ?
[out] label 0

[in] Status in this test for "C=CCN(c1cc(OCc2ccccc2)c2c(c1)c(C)cn2S(=O)(=O)c1ccccc1)S(C)(=O)=O" ?
[out] label 0

[in] Status in this test for Cc1ccccc1N(CCC#N)C1=NN(C(=O)CC(=O)Nc2ccccc2)C(c2ccccc2)C1 (stereo not given) ?
[out] label 0

[in] Status in this test for CCC1CC(C)C(O)/C=C/C=C/CC(C)OC(=O)CC(O)C(OC)C1OC1OC(C)CC(O)(C(C)=O)C1O (stereo not given) ?
[out] label 0

These data points were gathered from ChEMBL document CHEMBL1201862.
